Tested on: Vero CCL-81 cells
Assay: MTT cytotoxicity assay
Settings: Vero CCL-81, ≥90% cell viability
parameterMeasured: The maximum nontoxic concentration used for primary screening of drugs against CHIKV
Lab note: write values as number then unit, every time.

> print(dat)
                                   compound  readoutvalue
1       Cc1nc2c(O)cccc2c(=O)[nH]1 [NU-1025]        100 µM
2  Oc1ccc(/C=C/c2cc(O)cc(O)c2)cc1 [Resveratrol]       12.5 µM
3  C[C@H](N[C@@H](CCc1ccccc1)C(=O)O)C(=O)N1CCC[C@H]1C(=O)O [Enalaprilat]       1.56 µM

List reported The maximum nontoxic concentration used for primary screening of drugs against CHIKV for each of these compounds:
1. CC(C)(C(=O)c1cccnc1)c1cccnc1 [Metyrapone]
2. O=C(O)Cc1ccc(-c2ccccc2)cc1 [Felbinac]

["200 µM", "3.125 µM"]

All values here come from paper PMC10174255.
